# normalized growth listing for each entry below
Test: chemical genetic growth profiling, strain panel (AID 1159580);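 note: tested at 20 µM; growth read once vehicle control cultures reached saturation at 30 °C; 1 = growth at the plate median or of vehicle wells; lower values mean less growth of the strain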
Conditions: S. cerevisiae deletion strains, growth OD, locus YBR231C, strain swc5, stronger effect = lower value
Out of some 5,500 compounds screened, about 2,000 (36%) were called active. About 18% were inconclusive and are not listed. This is one part of the list.

## Input Give its normalized growth value. Item: `C=C1C[C@]23C[C@@]1(O)CC[C@H]2[C@@]12C=C[C@H](O)[C@@](C)(C(=O)O1)[C@H]2[C@@H]3C(=O)O`
## Output 1.03 (inactive)

## Input Give its normalized growth value. Item: CC12CCC(=O)C=C1CCC1C2[C@@H](O)CC2(C)C1CC[C@]2(O)C(=O)COP(=O)(O)O (stereo partly specified)
## Output 0.989 (inactive)

## Input Give its normalized growth value. Item: CC(C)CCCC(C)C1CCC2C3=CC[C@H]4C[C@@H](O)CC[C@]4(C)C3CC[C@@]21C (stereo partly specified)
## Output 0.967 (inactive)

## Input Give its normalized growth value. Item: CC(C)c1ccc2c(c1)CCC1C(C)(C(N)=O)CCCC21C (stereo unspecified)
## Output 0.993 (inactive)

## Input Give its normalized growth value. Item: CC1=CCCC2C1(C)CCC(C)C2(C)CC/C(C)=C/C[n+]1cn(C)c2c(N)ncnc21 (stereo unspecified)
## Output 0.973 (inactive)

## Input Give its normalized growth value. Item: `CN(C)C(=O)Oc1cccc([N+](C)(C)C)c1`
## Output 0.988 (inactive)

## Input Give its normalized growth value. Item: `Nc1ccc(C(=O)O)cc1`
## Output 1.04 (inactive)

## Input Give its normalized growth value. Item: `O=C(O)C1=CCCNC1`
## Output 0.981 (inactive)

## Input Give its normalized growth value. Item: `CCCOc1ccc2nc(NC(=O)OC)[nH]c2c1`
## Output 1.01 (inactive)
